Data provenance is ChEMBL document CHEMBL4418499.

Organism: Homo sapiens
method: Selectivity index, ratio of IC50 for recombinant TRIM24 (unknown origin) to IC50 for recombinant TRIM33 PHD bromodomain (unknown origin)
Please enter TRUE where Ratio IC50 is greater than or equal to 20, and FALSE where it is lower.

Worked examples follow.
- compound.smiles: "CCCOc1ccn2c(C(C)=O)cc(-c3nc4cnccn4c3NCc3ccc(C#N)cc3)c2c1"
  cat: "FALSE"
- compound.smiles: "COc1ccc(CCNc2c(-c3nc[nH]c3C)nc3ccccn23)cc1OC"
  cat: "TRUE"
- compound.smiles: "Cc1nc(-c2nc3cnccn3c2NCc2ccc(C#N)cc2)c[nH]1"
  cat: "FALSE"
- compound.smiles: "COc1ccc(Nc2c(-c3ccc4nccn4c3)nc3cnccn23)cc1"
  cat: "FALSE"
- compound.smiles: "c1ccn2c(NCCN3CCOCC3)c(-c3ccc4nccn4c3)nc2c1"
  cat: "TRUE"
- compound.smiles: "COC(=O)c1ccc2nc(-c3nc[nH]c3C)c(NCCN3CCOCC3)n2c1"
  cat: "FALSE"
- compound.smiles: "CCCOc1ccn2c(C(C)=O)cc(-c3nc4cnccn4c3NCCc3ccc(OC)c(OC)c3)c2c1"
  cat: "TRUE"
- compound.smiles: "COC(=O)c1ccc2nc(-c3c[nH]c(C)n3)c(Nc3ccc(OC)cc3)n2c1"
  cat: "FALSE"
- compound.smiles: "Cc1nc(-c2nc3ccc(Br)cn3c2NCCN2CCOCC2)c[nH]1"
  cat: "FALSE"
- compound.smiles: "COCCNc1c(-c2ccc3nccn3c2)nc2ccccn12"
  cat: "TRUE"

Prompt: // inclusive: Ratio IC50 at least 20? input: COc1ccc(Nc2c(-c3ccc4nccn4c3)nc3ccccn23)cc1
Response: FALSE

---

Species on record: Homo sapiens
method: Selectivity index, ratio of IC50 for recombinant TRIM24 (unknown origin) to IC50 for recombinant TRIM33 PHD bromodomain (unknown origin)
Please enter 1 where Ratio IC50 is greater than or equal to 10, and 0 where it is lower.

Worked examples follow.
- compound.smiles: "COC(=O)c1ccc2nc(-c3ccc4nccn4c3)c(Nc3ccc(OC)cc3)n2c1"
  cat: 1
- compound.smiles: "Cc1nc(-c2nc3ccc(Br)cn3c2NC2CCCCC2)c[nH]1"
  cat: 0
- compound.smiles: "Cc1nc(-c2nc3ccc(Br)cn3c2NCc2ccc(C#N)cc2)c[nH]1"
  cat: 0
- compound.smiles: "N#Cc1ccc(CNc2c(-c3ccc4nccn4c3)nc3ccccn23)cc1"
  cat: 1
- compound.smiles: "COc1ccc(CCNc2c(-c3ccc4nccn4c3)nc3cnccn23)cc1OC"
  cat: 0
- compound.smiles: "COc1ccc(Nc2c(-c3ccc4nccn4c3)nc3ccc(Br)cn23)cc1"
  cat: 0

Prompt: // inclusive: Ratio IC50 at least 10? input: c1ccn2c(NC3CCCCC3)c(-c3ccc4nccn4c3)nc2c1
Response: 1

Prompt: // inclusive: Ratio IC50 at least 10? input: COc1ccc(Nc2c(-c3nc[nH]c3C)nc3cnccn23)cc1
Response: 0

Prompt: // inclusive: Ratio IC50 at least 10? input: Cc1nc(-c2nc3ccccn3c2NCCN2CCOCC2)c[nH]1
Response: 0

Prompt: // inclusive: Ratio IC50 at least 10? input: N#Cc1ccc(CNc2c(-c3ccc4nccn4c3)nc3cnccn23)cc1
Response: 1

---

system.name: Transcription intermediary factor 1-alpha (Homo sapiens)
Sequence (O15164 whole entry): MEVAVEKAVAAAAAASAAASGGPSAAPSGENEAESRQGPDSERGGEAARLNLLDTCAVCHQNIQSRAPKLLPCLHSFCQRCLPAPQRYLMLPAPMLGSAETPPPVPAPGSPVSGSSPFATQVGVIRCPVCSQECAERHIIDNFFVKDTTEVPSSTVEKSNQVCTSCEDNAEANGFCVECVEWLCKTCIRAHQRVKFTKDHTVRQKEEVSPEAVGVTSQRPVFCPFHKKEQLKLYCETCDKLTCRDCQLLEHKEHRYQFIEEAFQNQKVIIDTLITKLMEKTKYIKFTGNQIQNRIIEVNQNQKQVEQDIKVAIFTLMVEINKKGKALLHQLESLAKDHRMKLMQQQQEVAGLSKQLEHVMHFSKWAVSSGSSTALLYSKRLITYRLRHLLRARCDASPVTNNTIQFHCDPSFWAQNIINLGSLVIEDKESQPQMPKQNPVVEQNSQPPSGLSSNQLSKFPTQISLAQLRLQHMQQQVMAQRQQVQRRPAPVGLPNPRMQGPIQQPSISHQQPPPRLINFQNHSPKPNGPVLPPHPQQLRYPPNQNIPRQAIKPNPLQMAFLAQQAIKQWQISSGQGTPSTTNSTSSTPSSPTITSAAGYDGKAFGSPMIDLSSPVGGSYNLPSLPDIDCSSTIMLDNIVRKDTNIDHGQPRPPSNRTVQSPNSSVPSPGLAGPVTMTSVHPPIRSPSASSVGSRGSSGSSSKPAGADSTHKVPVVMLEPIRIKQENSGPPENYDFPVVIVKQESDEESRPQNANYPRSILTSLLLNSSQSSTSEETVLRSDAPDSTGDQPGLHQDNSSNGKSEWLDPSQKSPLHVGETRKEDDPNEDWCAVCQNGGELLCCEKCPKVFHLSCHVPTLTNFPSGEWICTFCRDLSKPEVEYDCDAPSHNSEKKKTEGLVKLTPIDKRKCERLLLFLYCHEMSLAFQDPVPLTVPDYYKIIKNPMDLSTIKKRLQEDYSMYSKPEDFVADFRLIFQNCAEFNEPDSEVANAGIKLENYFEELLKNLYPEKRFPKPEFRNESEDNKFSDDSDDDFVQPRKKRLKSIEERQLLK
method: Inhibition of recombinant TRIM24 (unknown origin) using biotinylated H3 peptide (H3K9me3K18ac) by AlphaScreen assay
pIC50: −log10 of the molar value.
Please enter 1 where pIC50 is greater than or equal to 4, and 0 where it is lower.

Worked examples follow.
- compound.smiles: "O=Cc1cccnc1Br"
  cat: 1
- compound.smiles: "COC(=O)c1ccc2nc(-c3ccc4nccn4c3)c(NCCc3ccc(OC)c(OC)c3)n2c1"
  cat: 0
- compound.smiles: "COC(=O)c1ccc2nc(-c3c[nH]c(C)n3)c(NCCc3ccc(OC)c(OC)c3)n2c1"
  cat: 0
- compound.smiles: "Cc1nc(-c2nc3ccccn3c2NCCN2CCOCC2)c[nH]1"
  cat: 0
- compound.smiles: "COC(=O)c1ccc2nc(-c3c[nH]c(C)n3)c(NC3CCCCC3)n2c1"
  cat: 0
- compound.smiles: "COCCNc1c(-c2nc[nH]c2C)nc2ccc(C(=O)OC)cn12"
  cat: 0
- compound.smiles: "COCCNc1c(-c2c[nH]c(C)n2)nc2ccc(Br)cn12"
  cat: 0
- compound.smiles: "CCCOc1ccn2c(C(C)=O)cc(-c3nc4ccc(C(=O)OC)cn4c3NC3CCCCC3)c2c1"
  cat: 0

Prompt: // inclusive: pIC50 at least 4? input: O=Cc1ccc(N2CCCC2)cc1
Response: 1

Prompt: // inclusive: pIC50 at least 4? input: Cc1nc(-c2nc3ccc(Br)cn3c2NCCN2CCOCC2)c[nH]1
Response: 0

Prompt: // inclusive: pIC50 at least 4? input: N#Cc1ccc(CNc2c(-c3ccc4nccn4c3)nc3ccc(Br)cn23)cc1
Response: 0
